Provide the reported inhibition of each item.
- System: Hepatitis C virus NS3 protease (Hepatitis C virus)
- METHOD DESCRIPTION: Inhibitory activity against Protease using replicon assay in rats at 50 uM concentration
- MEASUREMENT CONDITIONS: Rattus norvegicus

Example entries begin here.
MOLECULE	RECORDED METRIC	READOUT VALUE
CCCC(NC(=O)[C@@H]1[C@H]2CCC(F)(F)[C@H]2CN1C(=O)[C@@H](NC(=O)OC(C)C)C(C)C)C(=O)C(=O)N[C@@H](C)c1ccccc1 (some centres undefined)	inhibition	22%
CCCC(NC(=O)[C@@H]1[C@H]2CCC(F)(F)[C@H]2CN1C(=O)[C@@H](NC(=O)OC(C)C)C(C)(C)C)C(=O)C(=O)N[C@@H](C)c1ccccc1 (some centres undefined)	inhibition	51%

Okay, next one:
Ask: Return reported inhibition; argument: CCCC(NC(=O)[C@@H]1[C@H]2CCC[C@H]2CN1C(=O)[C@@H](NC(=O)OC(C)C)C(C)C)C(=O)C(=O)N[C@@H](C)c1ccccc1 (some centres undefined)
Reply: 7%
